# system.under.test: Glucose transporter (Leishmania mexicana) (UniProt O61059)
# protocol: ST_JUDE_LEISH: Cytotoxicity at 2uM final concentration against transgenic Leishmania Mexicana promastigotes LmGT2 that are glucose transport deficient and complemented with the L. Mexicana glucose transporter 2. Activity is measured by DNA content using SYBR green in vitro
# Assay type: functional
Each entry below lists one item and its recorded inhibition value.

# molecule, system.under.test, inhibition
rows = [
    ("CCc1ccc(C(=O)NC(=O)c2ccccc2O)cc1", "Glucose transporter (Leishmania mexicana) (UniProt O61059)", "3.61%"),
    ("CCC1N=C(N)N=C(N)N1OCc1ccc(Cl)c(Cl)c1 (stereo unspecified)", "Glucose transporter (Leishmania mexicana) (UniProt O61059)", "-0.8%"),
    ("c1ccc(COc2ccnc(NCCCOc3cccc(CN4CCCCC4)c3)c2)cc1", "Glucose transporter (Leishmania mexicana) (UniProt O61059)", "-0.05%"),
    ("O=C(Nc1ccc2c(c1)OCO2)c1cc(-c2cccnc2)cnc1NCc1ccc2c(c1)OCO2", "Glucose transporter (Leishmania mexicana) (UniProt O61059)", "2.1%"),
    ("Cn1cncc1C(=O)Nc1cccc(-c2ccc(-c3nc4ccccc4[nH]3)s2)c1", "Glucose transporter (Leishmania mexicana) (UniProt O61059)", "4.94%"),
    ("CC(=O)Nc1ccc(Nc2ncc([N+](=O)[O-])c(Nc3ccccc3C(N)=O)n2)cc1", "Glucose transporter (Leishmania mexicana) (UniProt O61059)", "1.93%"),
    ("O=C(Nc1cccc(CN2CCCN(Cc3cccc(Cl)c3)CC2)c1)c1ccc(-c2ccccc2)cc1", "Glucose transporter (Leishmania mexicana) (UniProt O61059)", "0.66%"),
    ("Cn1cncc1C(=O)NC1CCN(c2ccnc(Nc3ccc(F)cc3)n2)C1 (stereo unspecified)", "Glucose transporter (Leishmania mexicana) (UniProt O61059)", "0.61%"),
    ("Cc1c[nH]c2ccc(/C=C/C(=O)NC3CCC(CCN4CCc5ccc(C#N)cc5CC4)CC3)cc12 (stereo unspecified)", "Glucose transporter (Leishmania mexicana) (UniProt O61059)", "0.32%"),
    ("CCCCn1c(C(C)Oc2ccc(Cl)cc2Cl)nc2cc(S(N)(=O)=O)ccc21 (stereo unspecified)", "Glucose transporter (Leishmania mexicana) (UniProt O61059)", "-1.84%"),
    ("COc1cc(NC(=O)c2cc([N+](=O)[O-])ccc2NC(=O)CNC2CCCCC2C)cc(OC)c1 (stereo unspecified)", "Glucose transporter (Leishmania mexicana) (UniProt O61059)", "1.96%"),
]

* * *

Each entry below lists one item and its recorded inhibition value.
# system.under.test: Hexose transporter 1 (Plasmodium falciparum) (UniProt O97467)
# protocol: ST_JUDE_LEISH: Cytotoxicity at 2uM final concentration against transgenic Leishmania Mexicana promastigotes LmPfHT that are glucose transport deficient and complemented with the Plasmodium falciparum hexose transporter. Activity is measured by DNA content using SYBR green in vitro
# Assay type: functional

# molecule, inhibition
rows = [
    ("COc1c(C2CCN(CCCCNC(=O)c3ccc(-c4ccc(Cl)cc4)c(OCCN(C)C)c3)CC2)ccc2c1CCCC2", "14.4%"),
    ("Cc1nn(CC(O)Cn2c3ccc(Br)cc3c3cc(Br)ccc32)c(C)c1Br (stereo not given)", "-3.23%"),
    ("Cn1ncc2c3c(CCN4CCC(NCc5cc6c(cn5)OCCO6)CC4)c(Cl)cnc3ccc21", "1.93%"),
    ("COc1cc(NC(=O)c2cccc([N+](=O)[O-])c2)cc(S(=O)(=O)c2ccc(Cl)cc2)c1", "-1.02%"),
    ("Cc1cc(=NN=Cc2cccc(Cl)c2)c2ccccc2[nH]1", "6.14%"),
]
